The measurements presented in this section are drawn from patent US20250170248A1.

target_of_assay: SMARCA4 (Homo sapiens, UniProt P51532)
Construct: SMARCA2/SMARCA4 protein degradation selectivity in MV4-11 cells; endogenous in cells; host or cells: MV4-11
Sequence (P51532 whole entry): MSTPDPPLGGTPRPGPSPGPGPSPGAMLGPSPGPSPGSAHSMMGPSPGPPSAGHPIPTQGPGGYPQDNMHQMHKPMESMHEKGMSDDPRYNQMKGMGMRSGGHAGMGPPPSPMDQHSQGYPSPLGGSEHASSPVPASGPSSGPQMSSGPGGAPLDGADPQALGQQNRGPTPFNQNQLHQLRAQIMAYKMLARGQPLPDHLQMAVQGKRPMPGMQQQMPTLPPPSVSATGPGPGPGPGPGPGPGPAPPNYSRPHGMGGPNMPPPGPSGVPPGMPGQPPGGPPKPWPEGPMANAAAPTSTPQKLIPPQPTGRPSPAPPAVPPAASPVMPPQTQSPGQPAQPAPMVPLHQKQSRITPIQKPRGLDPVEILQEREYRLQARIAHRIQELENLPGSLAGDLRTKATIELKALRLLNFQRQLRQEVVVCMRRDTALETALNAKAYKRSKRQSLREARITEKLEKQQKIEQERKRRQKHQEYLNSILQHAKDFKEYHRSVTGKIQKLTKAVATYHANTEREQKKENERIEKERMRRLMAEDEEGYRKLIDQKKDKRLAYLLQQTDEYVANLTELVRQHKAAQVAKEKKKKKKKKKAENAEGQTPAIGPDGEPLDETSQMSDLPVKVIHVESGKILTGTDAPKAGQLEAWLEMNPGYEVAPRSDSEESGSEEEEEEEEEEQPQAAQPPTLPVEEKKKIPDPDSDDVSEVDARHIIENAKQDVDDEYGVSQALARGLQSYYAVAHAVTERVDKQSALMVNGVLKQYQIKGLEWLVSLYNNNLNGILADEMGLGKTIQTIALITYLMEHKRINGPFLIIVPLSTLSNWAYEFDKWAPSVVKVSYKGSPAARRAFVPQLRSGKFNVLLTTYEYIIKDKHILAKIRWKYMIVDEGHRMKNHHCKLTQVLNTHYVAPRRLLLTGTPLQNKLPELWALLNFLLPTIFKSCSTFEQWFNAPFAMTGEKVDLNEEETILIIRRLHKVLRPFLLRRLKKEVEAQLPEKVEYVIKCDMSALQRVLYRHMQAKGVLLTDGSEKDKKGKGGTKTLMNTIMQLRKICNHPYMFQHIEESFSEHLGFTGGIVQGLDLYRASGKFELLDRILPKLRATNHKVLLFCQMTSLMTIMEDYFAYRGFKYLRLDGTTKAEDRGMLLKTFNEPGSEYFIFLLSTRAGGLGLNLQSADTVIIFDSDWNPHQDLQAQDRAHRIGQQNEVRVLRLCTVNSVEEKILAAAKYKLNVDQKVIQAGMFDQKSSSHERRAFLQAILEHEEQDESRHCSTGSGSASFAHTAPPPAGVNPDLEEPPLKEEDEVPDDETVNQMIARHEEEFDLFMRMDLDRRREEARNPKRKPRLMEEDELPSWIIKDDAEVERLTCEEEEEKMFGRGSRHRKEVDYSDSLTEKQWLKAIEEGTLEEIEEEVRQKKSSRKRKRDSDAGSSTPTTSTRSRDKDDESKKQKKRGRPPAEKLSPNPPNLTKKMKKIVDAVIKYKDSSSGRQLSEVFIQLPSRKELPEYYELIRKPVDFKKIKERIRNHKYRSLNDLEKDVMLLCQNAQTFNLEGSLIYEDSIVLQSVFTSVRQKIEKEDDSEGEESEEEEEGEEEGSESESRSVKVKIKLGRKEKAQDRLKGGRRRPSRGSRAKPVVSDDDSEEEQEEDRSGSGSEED
procedure_summary: SMARCA4 Western blot degradation in MV4-11 cells
Format: cell-based
condition_label: MV4-11 cells, 24 h; read-out: SMARCA4 MSD MV411 degradation 24 h: Mean external-Abs DC50
observed_property: DC50

>  <compound>
C#Cc1ccc(CNC(=O)[C@@H]2C[C@@H](O)CN2C(=O)[C@@H](NC(=O)N2CC3(CC(CN4CCC(c5cnc(N6CCc7[nH]c8nnc(-c9ccccc9O)cc8c7[C@H]6C)nc5)CC4)C3)C2)C(C)(C)C)cc1

>  <target_of_assay>
SMARCA4 (Homo sapiens, UniProt P51532)

>  <DC50>
> 100 nM

$$$$

Please supply DC50 for each of the following items, keeping them in order.
1. C#Cc1ccc(CNC(=O)[C@@H]2C[C@@H](O)CN2C(=O)[C@@H](NC(=O)N2CCO[C@@H](CN3CCC(N4CCC(N5CCN6c7cc(-c8ccccc8O)nnc7NC[C@H]6C5)CC4)CC3)C2)C(C)(C)C)cc1
2. Cc1ncsc1-c1ccc(CNC(=O)[C@@H]2C[C@@H](O)CN2C(=O)C(c2cc(OCCN3CCC(N4CCC(c5cnc(N6CCc7[nH]c8nnc(-c9ccccc9O)cc8c7[C@H]6C)nc5)CC4)CC3)no2)C(C)C)cc1 (some centres unmarked)
3. C#Cc1ccc(CNC(=O)[C@@H]2C[C@@H](O)CN2C(=O)[C@@H](NC(=O)[C@H]2CCC3(CC2)C[C@H](N2CCC(N4CCC(N5CCN6c7cc(-c8ccccc8O)nnc7NC[C@H]6C5)CC4)CC2)C3)C(C)(C)C)c(F)c1 (some centres unmarked) [I-258]
4. C#Cc1ccc(CNC(=O)[C@@H]2C[C@@H](O)CN2C(=O)[C@@H](NC(=O)[C@H]2CC3(CC[C@H](N4CCN(c5cnc(N6CCc7[nH]c8nnc(-c9ccccc9O)cc8c7[C@H]6C)nc5)CC4)CC3)C2)C(C)(C)C)cc1 (single isomer, unassigned) [I-300]
5. C#Cc1ccc(CNC(=O)[C@@H]2C[C@@H](O)CN2C(=O)[C@@H](NC(=O)N2CC3(CC(N4CCC(c5cnc(N6CCc7[nH]c8nnc(-c9ccccc9O)cc8c7[C@H]6CO)nc5)CC4)C3)C2)C(C)(C)C)c(Cl)c1
6. Cc1ncsc1-c1ccc(CNC(=O)[C@@H]2C[C@@H](O)CN2C(=O)C(c2cc(N3CC4(CCC(N5CCC(c6cnc(N7CCc8[nH]c9nnc(-c%10ccccc%10O)cc9c8[C@@H]7C)nc6)CC5)CC4)C3)no2)C(C)C)cc1 (single isomer, unassigned)
7. C#Cc1ccc(CNC(=O)[C@@H]2C[C@@H](O)CN2C(=O)[C@@H](NC(=O)[C@H]2CCC3(CC2)C[C@H](N2CCC(N4CCC(N5CCN6c7cc(-c8ccccc8O)nnc7NC[C@H]6C5)CC4)CC2)C3)C(C)(C)C)cc1 (single isomer, unassigned) [I-175]

Given back:
> 100 nM
1 to 10 nM
> 100 nM
> 100 nM
> 100 nM
10 to 100 nM
> 100 nM
